Molecular target: T1, 006 PSMA Fab
T1 construct: also called Anti-PSMA Fab; anti-PSMA Fab
Assay: phage ELISA: biotinylated PSMA Fab on neutravidin plate pre-incubated with PSMA antigen (competitor), clonal phage supernatant, anti-M13-HRP detection
Where no end group is shown, it is not given here.
measurement name: phage binding ELISA signal in presence of PSMA antigen
Kindly provide the number alone.

**Query** Bench note: what phage binding ELISA signal in presence of PSMA antigen did SVKWCTPSWMCEHM (Clonal phage of the peptide-180 library; not shown: pIII filament protein of the bacteriophage to which the peptide is fused) [Phage-2491] show?
**Result** 0.0739

**Query** Bench note: what phage binding ELISA signal in presence of PSMA antigen did IEKMCIPAWMCTDK (Clonal phage of the peptide-180 library; not shown: pIII filament protein of the bacteriophage to which the peptide is fused) [Phage-2492] show?
**Result** 0.0698

**Query** Bench note: what phage binding ELISA signal in presence of PSMA antigen did DFKWCTPPWMCDVF (Clonal phage of the peptide-180 library; not shown: pIII filament protein of the bacteriophage to which the peptide is fused) [Phage-2490] show?
**Result** 0.0763

**Query** Bench note: what phage binding ELISA signal in presence of PSMA antigen did LEKWCIPLWMCQTA (Clonal phage of the peptide-180 library; not shown: pIII filament protein of the bacteriophage to which the peptide is fused) [Phage-2495] show?
**Result** 0.0777

**Query** Bench note: what phage binding ELISA signal in presence of PSMA antigen did DSRWCIPDWMCELE (Clonal phage of the peptide-180 library; not shown: pIII filament protein of the bacteriophage to which the peptide is fused) [Phage-2483] show?
**Result** 0.0935

**Query** Bench note: what phage binding ELISA signal in presence of PSMA antigen did VSIWCIPPWMCVEK (Clonal phage of the peptide-180 library; not shown: pIII filament protein of the bacteriophage to which the peptide is fused) [Phage-2488] show?
**Result** 0.101

**Query** Bench note: what phage binding ELISA signal in presence of PSMA antigen did WAKWCTPEWMCVVH (Clonal phage of the peptide-180 library; not shown: pIII filament protein of the bacteriophage to which the peptide is fused) [Phage-2489] show?
**Result** 0.15

**Query** Bench note: what phage binding ELISA signal in presence of PSMA antigen did LVRWCVPEWMCAGM (cysteine pairing not given here; also: displayed on phage as fusion to pIII, pIII and linker sequence not given here, Clonal phage of the peptide-180 library; not shown: pIII filament protein of the bacteriophage to which the peptide is fused) [Phage-2484] show?
**Result** 0.0945
